experiment_description: inhibitors of HIV fusion peptide binding, primary screen, biochemical, uHTS, fluorescence dequenching (AID 1986)
experimental_setup: cell-free peptide binding, 30 min, at 20 µM
Among all 290,000 compounds or so, about 890 (0.31%) were called active. Cut-off read from the data, not from the text of the source: active = inhibition mostly above about 52% (no sharp cut-off); inactive = mostly below about 76%. The list comes from a sample in which actives are over-represented; it also holds close analogues and randomly drawn compounds.
Give your call using only these classes: True = active, False = inactive

Q: Just curious, what result did `COc1cc(C(=O)Oc2cc(C)[nH]c(=O)c2[N+](=O)[O-])cc(OC)c1OC` get here?
Result: False

Q: Per the assay record, what outcome was assigned to `CC1=C/C(=C/N(C)C)C(=O)O1` ?
Result: False

Q: Recorded test call requested for COc1cc(NC(=O)C2CC(c3c(F)cccc3Cl)=NO2)cc(OC)c1OC (configuration not stated)
Result: False

Q: For this compound, state the assay outcome: `O=C(CN1C(=O)NC2(CCCCCCC2)C1=O)N1CCN(C(=O)c2ccco2)CC1`
Result: False

Q: Lab log entry: `CSc1nc2ccccc2n1CC(=O)Nc1ccc(C)c(C)c1` — outcome as called in the assay?
Result: False

Q: Tell me the recorded outcome of this test for `CCOC(=O)/C(=C/C1=CC(=C/N(C)C)/C(=O)O1)C(C)=O` .
Result: True

Q: How was COc1ccc(C2C(C(=O)N3CCN(c4ccccn4)CC3)CCC(=O)N2c2ccc(OC)cc2)cc1 (configuration not stated) classified in this test?
Result: False

Q: Write down the call the test reported for this compound. Item: `Cn1cc(/C=N/NC(=O)c2cc3cc(Br)ccc3o2)c2ccccc21`
Result: False

Q: Could you check what this test reported for `O=[N+]([O-])c1sccc1CS(=O)(=O)c1ccccc1` ?
Result: False

Q: Name the outcome recorded for `CCC(=O)Nc1ccc(-c2nnc(SCc3ccc(C(=O)Nc4nccs4)cc3)n2CC)cc1` in the assay.
Result: False

Q: For `O=C(O)Cn1cc(/C=N/NC(=O)c2cc3cc(Br)ccc3o2)c2ccccc21` , what call appears in the results of this test?
Result: False

Q: Query: recorded result category for `CCOC(=O)c1cc(CC)sc1NC(=O)COc1ccc2c(C)cc(=O)oc2c1` in this test
Result: False

Q: GET /call?item= `Cc1cc2ccccn2c1C(=O)c1ccc(NN)c([N+](=O)[O-])c1` returns the recorded outcome of this test.
Result: False

Q: # lookup: test call for `O=C(O)CCCCCCCC(=O)O`
Result: False

Q: What was the test verdict on CCOc1ccc(C(C)NC(=O)c2cccnc2OCC)cc1OCC (configuration not stated) ?
Result: False

Q: Short answer needed: outcome of this test for `CN(C)/C=C1/C=C(C=O)OC1=O` ?
Result: False

Q: Tell me the assay call for `COc1ccc(OC)c2[nH]c(=O)c(CCNC(=O)c3ccc(S(=O)(=O)N4CCCCC4)cc3)cc12` please.
Result: False

Q: Returns: the outcome recorded for CCc1nnc(SCC(=O)N2CCCC(N3CCN(c4ccccc4C)CC3)C2)o1 (configuration not stated) in this assay.
Result: False

Q: # lookup: test call for `COc1ccc(N=C2NC(=O)CS2)c([N+](=O)[O-])c1`
Result: False

Q: State the result this test recorded for `O=C1OC(c2cccs2)=N/C1=C/c1ccc(-c2cccc(C(=O)O)c2)o1` .
Result: False

Q: Recorded test outcome, item `O=C(O)c1ccc(-n2cccc2/C=N\NC(=O)c2cc3cc(Br)ccc3o2)cc1`
Result: True

Q: For `COc1ccc(NC(=S)N(Cc2cccnc2)Cc2ccco2)cc1` , what call appears in the results of this test?
Result: False

Reference source: PubChem BioAssay AID1986
